As shown below, each of these binders has a reported IC50 value.
- MEASUREMENT_TARGET: T1, human soluble ULBP6 haplotype 01 (hULBP6_01) (human, UniProt Q5VY80 27-218, limits assumed)
- T1 construct: also called sULBP6_01
- T1 chain: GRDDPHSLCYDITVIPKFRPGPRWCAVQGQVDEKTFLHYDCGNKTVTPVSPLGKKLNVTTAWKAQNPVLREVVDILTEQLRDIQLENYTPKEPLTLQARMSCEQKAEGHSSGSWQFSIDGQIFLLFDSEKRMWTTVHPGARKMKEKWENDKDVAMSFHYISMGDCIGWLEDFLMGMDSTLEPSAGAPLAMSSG
- ASSAY: blocking ELISA; hNKG2D coated, antibody titrated with biotinylated hULBP6_01
Field note: include the unit after the figure.

>  <BINDER>
Humanized 7B3 (h7B3) (E-) (antibody, human IgG1, kappa, N297G, V domains shown, hIgG1 with N297G (effector negative)) VH: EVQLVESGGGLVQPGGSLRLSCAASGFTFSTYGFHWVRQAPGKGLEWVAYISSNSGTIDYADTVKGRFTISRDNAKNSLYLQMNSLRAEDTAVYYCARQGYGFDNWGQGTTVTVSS VL: DIQLTQSPSSLSASVGDRVTITCSASSRVSYMNWYQQKPGKSPKIWVYGISNLASGVPSRFSGSGSGTDFTFTISSLQPEDIATYYCQQRSSHPLTFGGGTKVEIKR

>  <OBSERVED>
4.48 nM

$$$$
>  <BINDER>
Humanized 8E11 (h8E11) (E-) (antibody, human IgG1, kappa, N297G, V domains shown, hIgG1 with N297G (effector negative)) VH: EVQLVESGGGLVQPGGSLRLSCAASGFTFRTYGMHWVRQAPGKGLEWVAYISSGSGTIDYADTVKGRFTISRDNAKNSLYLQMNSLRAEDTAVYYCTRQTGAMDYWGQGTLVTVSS VL: EIVLTQSPATLSLSPGERATLSCSASSSVSYMNWYQQKPGQSPRLWIYGISNLASGVPARFSGSGSGTDFTLTISSLEPEDFAVYYCQQRSSHPLTFGGGTKVEIKR

>  <OBSERVED>
5.06 nM

$$$$
>  <BINDER>
Humanized 6E1 (h6E1) (E-) (antibody, human IgG1, kappa, N297G, V domains shown, hIgG1 with N297G (effector negative)) VH: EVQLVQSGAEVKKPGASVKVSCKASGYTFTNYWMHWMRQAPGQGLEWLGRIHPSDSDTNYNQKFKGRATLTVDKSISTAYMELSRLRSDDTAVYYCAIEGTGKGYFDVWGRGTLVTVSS VL: DIQMTQSPSSLSASVGDRVTITCKASQDIYSYLSWFQQKPGKSPKTLIYRANRLVDGVPSRFSGSGSGQDFTLTISSLQPEDFATYYCLHYDEFPLTFGGGTKVEIKR

>  <OBSERVED>
10.2 nM

$$$$

Note down IC50 recorded for Humanized 1D4 (h1D4) (E-) (antibody, human IgG1, kappa, N297G, V domains shown, hIgG1 with N297G (effector negative)) VH: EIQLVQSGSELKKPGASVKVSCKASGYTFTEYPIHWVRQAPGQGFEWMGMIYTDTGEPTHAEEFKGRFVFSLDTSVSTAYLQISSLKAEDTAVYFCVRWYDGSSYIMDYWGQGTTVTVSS VL: DIQMTQSPSSLSASVGDRVTITCKASQDINSYLSWFQQKPGKSPKTLIYRANRLVDGVPSRFSGSGSGQDYTFTISSLQPEDIATYYCLQYDEFPLTFGGGTKVEIKR 7.7 nM

Reference source for all entries: patent US20250084172A1
